# target desc: Recombinant human TDO (Homo sapiens)
# test protocol: hTDO biochemical coupled assay
# test settings: 330 μM L-tryptophan, coupled with kynurenine formamidase
outcome measure: hTDO biochemical assay pIC50

O=S(=O)(c1cccc(OC(F)(F)F)c1)N1CCC(c2c[nH]c3ccccc23)CC1 ... +− (+− = pIC50 <4.00)
CC(=O)N1CC=C(c2c[nH]c3cc(C)ccc23)CC1 ... + (+ = pIC50 4.00-4.99)
CN(C)S(=O)(=O)N1CC=C(c2c[nH]c3cc(F)ccc23)CC1 ... + (+ = pIC50 4.00-4.99)
Cc1ccc2[nH]cc(C3CCN(S(=O)(=O)c4ccc(Br)cc4OC(F)(F)F)CC3)c2c1 ... +− (+− = pIC50 <4.00)
COc1ccc2[nH]cc(C3CCN(C(=O)C(C)C)CC3)c2c1 ... +− (+− = pIC50 <4.00)

What hTDO biochemical assay pIC50 value was documented for this compound, CC(C)C(=O)N1CCC(c2c[nH]c3ccccc23)CC1 ?
+− (+− = pIC50 <4.00)

Repeat for the following compound: O=S(=O)(c1ccccc1Br)N1CCC(c2c[nH]c3ccccc23)CC1
+− (+− = pIC50 <4.00)

Repeat for the following compound: NS(=O)(=O)N1CCN(c2c[nH]c3ccccc23)CC1
+ (+ = pIC50 4.00-4.99)

* * *

# target desc: IDO (SKOV3 human ovarian adenocarcinoma cells, IFN-γ induced) (Homo sapiens)
# Construct: IDO expression was induced in the SKOV3 cells by the addition of 500 ng/ml IFN-γ; endogenous in cells; host or cells: SKOV3 human ovarian adenocarcinoma cells, induced with IFN-γ
# Sequence (P14902 whole entry): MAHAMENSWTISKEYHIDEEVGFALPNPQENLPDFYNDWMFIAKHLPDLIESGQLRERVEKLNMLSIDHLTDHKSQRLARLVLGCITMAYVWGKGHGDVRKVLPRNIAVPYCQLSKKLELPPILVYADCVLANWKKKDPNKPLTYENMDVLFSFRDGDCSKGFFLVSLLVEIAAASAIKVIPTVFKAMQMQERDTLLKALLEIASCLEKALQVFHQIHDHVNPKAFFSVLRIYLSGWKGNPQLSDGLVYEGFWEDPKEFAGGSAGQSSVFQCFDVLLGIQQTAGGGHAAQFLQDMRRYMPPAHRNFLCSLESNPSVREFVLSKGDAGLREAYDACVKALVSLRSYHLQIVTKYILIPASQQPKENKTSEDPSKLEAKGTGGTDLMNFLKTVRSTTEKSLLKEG
# test protocol: SKOV3 Kynurenine cell based assay
# test settings: IDO induced by 500 ng/ml IFN-γ, 500 μM L-tryptophan, 48 hours
outcome measure: SKOV3 Kynurenine cell based assay pIC50

CN1CC2CN(c3c[nH]c4ccccc34)CCN2C1=O (stereo not drawn) ... +− (+− = pIC50 <4.00)
CS(=O)(=O)N1CCC(c2c[nH]c3cc(Cl)c(F)cc23)CC1 ... + (+ = pIC50 4.00-4.99)
CC(=O)N1CC=C(c2c[nH]c3ccc(C(F)(F)F)cc23)CC1 ... + (+ = pIC50 4.00-4.99)
CC(=O)N1CCC(c2c[nH]c3ccc(F)cc23)CC1 ... +− (+− = pIC50 <4.00)
Cc1cccc2c(C3CCN(C(=O)c4cnn(-c5ccccc5)c4C(F)(F)F)CC3)c[nH]c12 ... + (+ = pIC50 4.00-4.99)
CCCC(=O)N1CCC(c2c[nH]c3ccccc23)CC1 ... +− (+− = pIC50 <4.00)

What SKOV3 Kynurenine cell based assay pIC50 value was documented for this molecule, CCCC(=O)N1CCC(c2c[nH]c3cc(F)ccc23)CC1 ?
+ (+ = pIC50 4.00-4.99)

Repeat for the following molecule: O=S(=O)(C1CCCC1)N1CCC(c2c[nH]c3cc(F)ccc23)CC1
+ (+ = pIC50 4.00-4.99)

* * *

# target desc: IDO (SKOV3 human ovarian adenocarcinoma cells, IFN-γ induced) (Homo sapiens)
# Construct: IDO expression was induced in the SKOV3 cells by the addition of 500 ng/ml IFN-γ; endogenous in cells; host or cells: SKOV3 human ovarian adenocarcinoma cells, induced with IFN-γ
# test protocol: SKOV3 Kynurenine cell based assay
# test settings: IDO induced by 500 ng/ml IFN-γ, 500 μM L-tryptophan, 48 hours
outcome measure: SKOV3 Kynurenine cell based assay pIC50

CC(=O)N1CCC(c2c(C)[nH]c3ccccc23)CC1 ... + (+ = pIC50 4.00-4.99)
CC(=O)N1CCC(c2c[nH]c3cc(Cl)ccc23)CC1 ... + (+ = pIC50 4.00-4.99)
O=S(=O)(C1CC1)N1CCC(c2c[nH]c3ccccc23)CC1 ... +− (+− = pIC50 <4.00)
Cc1ccc(S(=O)(=O)N2CCC(c3c[nH]c4ccccc34)CC2)c(C)c1 ... +− (+− = pIC50 <4.00)

* * *

# target desc: TDO (A172 human glioblastoma cells) (Homo sapiens, UniProt P48775)
# Construct: This assay utilised cancer cells which expressed either TDO or IDO; endogenous in cells; host or cells: A172 human glioblastoma cells
# Sequence (P48775 whole entry): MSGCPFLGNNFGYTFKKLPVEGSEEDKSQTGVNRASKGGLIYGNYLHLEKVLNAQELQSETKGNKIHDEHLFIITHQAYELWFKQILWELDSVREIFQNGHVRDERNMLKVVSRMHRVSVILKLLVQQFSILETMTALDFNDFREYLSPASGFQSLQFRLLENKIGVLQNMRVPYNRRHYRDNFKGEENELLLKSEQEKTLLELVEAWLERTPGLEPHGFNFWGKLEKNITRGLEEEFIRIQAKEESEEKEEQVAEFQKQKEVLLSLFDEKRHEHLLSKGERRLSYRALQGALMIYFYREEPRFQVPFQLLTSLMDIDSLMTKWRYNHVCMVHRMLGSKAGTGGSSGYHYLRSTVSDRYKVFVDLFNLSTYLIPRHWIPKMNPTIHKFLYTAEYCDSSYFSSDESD
# test protocol: A172 Kynurenine cell based assay
# test settings: 500 μM L-tryptophan, 48 hours, kynurenine by Erhlich's reagent
# Protocol: Exemplary compounds of the invention were prepared, and tested to determine their effect as TDO and/or IDO inhibitors. […] This coupled enzyme system allowed conversion of N-formylkynurenine produced by TDO or IDO activity to kynurenine which was then quantified by fluorescence following addition of Erhlich's Reagent The protocols for these are set out below. […]
outcome measure: A172 Kynurenine cell based assay pIC50

CN(C)S(=O)(=O)N1CC=C(c2c[nH]c3cc(F)ccc23)CC1 ... +++ (+++ = pIC50 ≥6.00)
CC(C)C(=O)N1CCC(C(=O)N2CCC(c3c[nH]c4cc(F)ccc34)CC2)CC1 ... + (+ = pIC50 4.00-4.99)
NS(=O)(=O)N1CC=C(c2c[nH]c3ccccc23)CC1 ... +++ (+++ = pIC50 ≥6.00)
Cc1ccc(S(=O)(=O)N2CCC(c3c[nH]c4ccccc34)CC2)cc1 ... + (+ = pIC50 4.00-4.99)

* * *

# target desc: IDO (SKOV3 human ovarian adenocarcinoma cells, IFN-γ induced) (Homo sapiens)
# Construct: IDO expression was induced in the SKOV3 cells by the addition of 500 ng/ml IFN-γ; endogenous in cells; host or cells: SKOV3 human ovarian adenocarcinoma cells, induced with IFN-γ
# test protocol: SKOV3 Kynurenine cell based assay
# test settings: IDO induced by 500 ng/ml IFN-γ, 500 μM L-tryptophan, 48 hours
outcome measure: SKOV3 Kynurenine cell based assay pIC50

// known answers, use as guide
COc1ccc2[nH]cc(C3CCN(C(=O)C(C)C)CC3)c2c1 [Compound 15] ... + (+ = pIC50 4.00-4.99)
CCNC(=O)N1CCC(c2c[nH]c3ccccc23)CC1 [Compound 68] ... +− (+− = pIC50 <4.00)
Cc1cccc2c(C3CCN(S(=O)(=O)c4cccc(C(F)(F)F)c4)CC3)c[nH]c12 [Compound 46] ... +− (+− = pIC50 <4.00)
Fc1ccc2c(C3CCN(c4ccncc4)CC3)c[nH]c2c1 [Compound 301] ... + (+ = pIC50 4.00-4.99)
CN(C)CCOc1ccc2c(C3=CCN(S(C)(=O)=O)CC3)c[nH]c2c1 [Compound 254] ... + (+ = pIC50 4.00-4.99)

Next item in the queue.
What SKOV3 Kynurenine cell based assay pIC50 value was documented for this molecule, CC(=O)N1CC=C(c2c[nH]c3cc(C#N)ccc23)CC1 [Compound 214] ?
+ (+ = pIC50 4.00-4.99)

* * *

# target desc: Recombinant human TDO (Homo sapiens)
# test protocol: hTDO biochemical coupled assay
# test settings: 330 μM L-tryptophan, coupled with kynurenine formamidase
# Procedure: Exemplary compounds of the invention were prepared, and tested to determine their effect as TDO and/or IDO inhibitors. […] This coupled enzyme system allowed conversion of N-formylkynurenine produced by TDO or IDO activity to kynurenine which was then quantified by fluorescence following addition of Erhlich's Reagent The protocols for these are set out below. […]
outcome measure: hTDO biochemical assay pIC50

// known answers, use as guide
Cc1cccc2c(C3CCN(C(=O)c4cc(Cl)cnc4Cl)CC3)c[nH]c12 ... +− (+− = pIC50 <4.00)
O=S(=O)(c1cc(C(F)(F)F)ccc1C(F)(F)F)N1CCC(c2c[nH]c3ccc(F)cc23)CC1 ... +− (+− = pIC50 <4.00)
O=S(=O)(c1cccs1)N1CC=C(c2c[nH]c3ncccc23)CC1 ... +− (+− = pIC50 <4.00)
FC(F)(F)CN1CCC(c2c[nH]c3ccccc23)CC1 ... +− (+− = pIC50 <4.00)
NS(=O)(=O)N1CCC(c2c[nH]c3ccccc23)CC1 ... + (+ = pIC50 4.00-4.99)
COc1ccc2[nH]cc(C3CCN(S(=O)(=O)c4ccc(Br)cc4OC(F)(F)F)CC3)c2c1 ... +− (+− = pIC50 <4.00)

What hTDO biochemical assay pIC50 value was documented for this compound, CC(=O)N1CCC(c2c[nH]c3ncccc23)CC1 ?
+− (+− = pIC50 <4.00)

Repeat for the following compound: CS(=O)(=O)N1CCC(c2c[nH]c3cc(F)c(F)cc23)CC1
+ (+ = pIC50 4.00-4.99)

* * *

# target desc: IDO (SKOV3 human ovarian adenocarcinoma cells, IFN-γ induced) (Homo sapiens)
# Construct: IDO expression was induced in the SKOV3 cells by the addition of 500 ng/ml IFN-γ; endogenous in cells; host or cells: SKOV3 human ovarian adenocarcinoma cells, induced with IFN-γ
# test protocol: SKOV3 Kynurenine cell based assay
# test settings: IDO induced by 500 ng/ml IFN-γ, 500 μM L-tryptophan, 48 hours
outcome measure: SKOV3 Kynurenine cell based assay pIC50

// known answers, use as guide
O=S(=O)(N1CCCC1)N1CCC(c2c[nH]c3ccccc23)CC1 ... + (+ = pIC50 4.00-4.99)
CC(=O)N1CCCC(c2c[nH]c3cc(F)ccc23)CC1 (stereo not drawn) ... +− (+− = pIC50 <4.00)
CC(=O)N1CCC(c2c[nH]c3cc(Cl)c(F)cc23)CC1 ... + (+ = pIC50 4.00-4.99)
Cc1ccc2[nH]cc(C3CCN(S(=O)(=O)c4cc(C)c(Cl)cc4Cl)CC3)c2c1 ... + (+ = pIC50 4.00-4.99)
CS(=O)(=O)N1CC=C(c2c[nH]c3ccc(F)cc23)CC1 ... + (+ = pIC50 4.00-4.99)
CC(=O)N1CCC(c2c[nH]c3cccc(F)c23)CC1 ... +− (+− = pIC50 <4.00)
Cc1cccc2c(C3CCN(S(=O)(=O)c4cc(F)c(F)cc4Cl)CC3)c[nH]c12 ... +− (+− = pIC50 <4.00)
CNS(=O)(=O)N1CCC(c2c[nH]c3cc(F)ccc23)CC1 ... + (+ = pIC50 4.00-4.99)
CC(=O)N1CC=C(c2c[nH]c3c(F)cc(F)cc23)CC1 ... + (+ = pIC50 4.00-4.99)
CC(=O)N1CCC(c2c[nH]c3ccc(OCc4ccccc4)cc23)CC1 ... + (+ = pIC50 4.00-4.99)

What SKOV3 Kynurenine cell based assay pIC50 value was documented for this molecule, Cc1cccc2c(C3CCN(C(=O)c4ccc(F)c(C(F)(F)F)c4)CC3)c[nH]c12 ?
+ (+ = pIC50 4.00-4.99)

Repeat for the following molecule: CC1(C)CN(c2c[nH]c3ccccc23)CCN1S(C)(=O)=O
+− (+− = pIC50 <4.00)

Repeat for the following molecule: COc1cccc(C(=O)N2CCC(c3c[nH]c4cc(F)ccc34)CC2)n1
+ (+ = pIC50 4.00-4.99)

Repeat for the following molecule: CS(=O)(=O)N1CCC(=C2C(=O)Nc3ccc(Br)cc32)CC1
+ (+ = pIC50 4.00-4.99)
